- Target: human recombinant mGluR5 (Homo sapiens)
- Construct: hygromycin and geneticin selection
- Sequence (P41594 21-1212): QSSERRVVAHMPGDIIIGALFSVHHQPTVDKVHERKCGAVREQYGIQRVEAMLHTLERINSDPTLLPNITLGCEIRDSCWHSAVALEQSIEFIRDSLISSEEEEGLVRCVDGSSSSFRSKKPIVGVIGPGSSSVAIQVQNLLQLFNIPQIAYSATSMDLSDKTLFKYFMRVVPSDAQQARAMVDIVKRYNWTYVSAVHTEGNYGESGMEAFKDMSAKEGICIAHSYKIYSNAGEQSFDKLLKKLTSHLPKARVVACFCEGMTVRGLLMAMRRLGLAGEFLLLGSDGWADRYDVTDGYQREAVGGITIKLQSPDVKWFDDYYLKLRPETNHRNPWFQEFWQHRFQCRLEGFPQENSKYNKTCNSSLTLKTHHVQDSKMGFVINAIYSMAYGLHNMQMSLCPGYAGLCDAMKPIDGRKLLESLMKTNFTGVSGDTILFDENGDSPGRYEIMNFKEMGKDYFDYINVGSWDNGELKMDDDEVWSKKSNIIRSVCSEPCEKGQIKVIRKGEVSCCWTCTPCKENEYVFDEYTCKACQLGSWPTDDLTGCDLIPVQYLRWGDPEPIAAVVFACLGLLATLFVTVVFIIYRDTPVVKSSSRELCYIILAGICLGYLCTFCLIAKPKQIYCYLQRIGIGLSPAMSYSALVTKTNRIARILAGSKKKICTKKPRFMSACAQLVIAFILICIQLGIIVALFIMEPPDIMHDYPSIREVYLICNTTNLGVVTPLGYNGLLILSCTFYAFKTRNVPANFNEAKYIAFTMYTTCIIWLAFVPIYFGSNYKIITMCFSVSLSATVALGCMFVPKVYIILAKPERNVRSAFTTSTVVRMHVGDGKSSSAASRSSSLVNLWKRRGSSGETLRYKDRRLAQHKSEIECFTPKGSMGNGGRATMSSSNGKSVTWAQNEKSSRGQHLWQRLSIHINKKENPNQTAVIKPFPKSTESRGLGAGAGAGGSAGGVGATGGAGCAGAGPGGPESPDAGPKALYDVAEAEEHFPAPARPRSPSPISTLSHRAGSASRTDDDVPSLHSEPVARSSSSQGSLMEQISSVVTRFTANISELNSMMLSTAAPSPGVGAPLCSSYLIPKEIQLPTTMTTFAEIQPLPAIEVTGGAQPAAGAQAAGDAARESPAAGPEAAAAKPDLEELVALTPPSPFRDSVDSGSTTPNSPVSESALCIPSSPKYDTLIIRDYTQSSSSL
- Test description: positive modulation of mGluR5, calcium based FLIPR assay
- Conditions: HEK 293 cell line expressing human recombinant mGluR5; Ca2+ peak height after glutamate at approximately 5% basal stimulation; nonlinear regression
- Procedure: The positive modulation of mGluR5 is measured in a HEK 293 cell line expressing human recombinant mGluR5 and is detected with calcium based FLIPR assay. […] 20 μl of each compound solution are then transferred to the assay plate and the Ca2+ kinetic is measured to determine any intrinsic compound activity. […] The peak height of the Ca release related fluorescence signal (9-66) is used for the EC50. The EC50 of the modulation is calculated over a nonlinear regression with GraphPad Prism (Table 1).
Endpoint: log10 of EC50 (log10 of the value in nM)
// units: nM (pre-log); metric: EC50; scale: log10

Compound	Endpoint result
COc1cccc(C(=O)N2CCN(C(=O)c3ncn(-c4cccc(C)c4)n3)C(C)(C)C2)n1	1.70
CC1(C)CN(C(=O)c2cc3ccccn3c2)CCN1C(=O)c1ncn(-c2cccc(Cl)c2)n1	2.02
COc1cc(C)cc(C(=O)N2CCN(C(=O)c3ncn(-c4cccc(Cl)c4)n3)C(C)(C)C2)n1	1.76
CC1(C)CN(C(=O)c2cc(Cl)c3c(c2)OCCO3)CCN1C(=O)c1nnn(-c2ccccc2)n1	1.28
Cc1c(C(=O)N2CCN(C(=O)c3ncn(-c4cccc(Cl)c4)n3)C(C)(C)C2)oc2c(F)cccc12	1.89
Cc1ccc2oc(C(=O)N3CCN(C(=O)c4ncn(-c5cccc(Cl)c5)n4)C(C)C3)c(C)c2c1 (stereo not drawn)	3.18
CC1CN(C(=O)c2ncn(-c3cccc(F)c3)n2)CCN1C(=O)c1cc(Cl)c2c(c1)OCCO2 (stereo not drawn)	2.48
C#CCOc1cccc(C(=O)N2CCN(C(=O)c3ncn(-c4cccc(Cl)c4)n3)C(C)(C)C2)c1	1.81
CC1(C)CN(C(=O)c2cccc(N3CCCC3)n2)CCN1C(=O)c1ncn(-c2cccc(Cl)c2)n1	2.01
Cc1oc2ccc(Br)cc2c1C(=O)N1CCN(C(=O)c2ncn(-c3cccc(F)c3)n2)C(C)(C)C1	1.59

Provide reported log10 of EC50 for each item, in the same order as listed.
1. CCCOc1nc(C(=O)N2CCN(C(=O)c3ncn(-c4ccccc4)n3)C(C)(C)C2)cc2ccccc12
2. CC1(C)CN(C(=O)c2cc(Cl)cc(C(F)(F)F)c2)CCN1C(=O)c1ncn(-c2ccccc2)n1

Reply:
[1.45, 2.08]
